- test_details: Toxicity liver stage against HepG2, at 10uM
- Assay type: cell-based
- Set-up: test concentration 10 uM, cell line HepG2-A16-CD81EGFP
- experimental_parameters: human, HepG2-A16-CD81EGFP cells; read-out: INHIBITION
measured_parameter: cytotoxicity at 10 µM (%)

[[record]]
compound = "CC(C)(C)c1noc(-c2nc3c([nH]2)CCCNC3=O)n1"
measured_parameter = "cytotoxicity at 10 µM"
experimental_value = -3.83

[[record]]
compound = "COCCN(CCOC)c1nc2c(s1)c(C)nn2C"
measured_parameter = "cytotoxicity at 10 µM"
experimental_value = -40.5

[[record]]
compound = "COc1ccccc1C1(NCc2c(C)nc3c(C)cccn23)CCCC1"
measured_parameter = "cytotoxicity at 10 µM"
experimental_value = 15.2

[[record]]
compound = "Cn1ccnc1CNc1nccc(-c2ncnn2C)n1"
measured_parameter = "cytotoxicity at 10 µM"
experimental_value = -6.47

[[record]]
compound = "Cc1nc(Nc2nnc(C)s2)cc(C2CCCN2C2CCCC2)n1 (stereo unspecified)"
measured_parameter = "cytotoxicity at 10 µM"
experimental_value = -16.7

[[record]]
compound = "Cn1nc(C(C)(C)C)cc1NC(=O)Cn1ccnc1"
measured_parameter = "cytotoxicity at 10 µM"
experimental_value = 1.5

